- Tested on: primary human hepatic stellate cells (donor 1)
- Method: scaled lipid accumulation score (0 = DMSO-like, 1 = nortriptyline-like); higher = stronger HSC inactivation (lipid re-accumulation), active = hit call of the paper
- Setup conditions: library stock concentration: 5.2 mM; 48 h
Counter-ions that a name gives are not always drawn. About 620 (11%) of roughly 5,800 compounds showed activity. The full list was thinned out, with actives kept by preference.
Provide the reported scaled lipid accumulation score of each item.

// query Specify measured scaled lipid accumulation score for COc1cc2nc(N3CCN(C(=O)c4ccco4)CC3)nc(N)c2cc1OC [Prazosin HCl] .
// result 0.728 (inactive)

// query Look up and report measured scaled lipid accumulation score for this entry: OCCOCCN1CCN(C2=Nc3ccccc3Sc3ccccc32)CC1 [Quetiapine]
// result ≤ 0 (inactive)

// query Using the record for CCCCC(C)(O)C/C=C/[C@H]1[C@H](O)CC(=O)[C@@H]1CCCCCCC(=O)OC (some centres undefined) [Misoprostol] , state its measured scaled lipid accumulation score.
// result ≤ 0 (inactive)

// query Give a short answer stating reported scaled lipid accumulation score for CCOC(=O)C1=C(C)NC(C)=C(C(=O)OC)C1c1cccc(Cl)c1Cl (centres undefined) [Felodipine] .
// result 0.028 (inactive)

* * *

- System: primary human hepatic stellate cells (donor 1)
- Method: scaled lipid accumulation score (0 = DMSO-like, 1 = nortriptyline-like); higher = stronger HSC inactivation (lipid re-accumulation), active = hit call of the paper
- Setup conditions: library stock concentration: 1 mM; 48 h
About 620 (11%) of roughly 5,800 compounds showed activity. For the sample, actives were picked, then their nearest neighbours and some compounds at random.
Task for the reader: assign each of the following molecules its reported scaled lipid accumulation score.

// query Retrieve scaled lipid accumulation score measured for CCCCC[C@H](O)/C=C/[C@H]1C2COC(C2)[C@@H]1C/C=C/CCCC(=O)O (some centres undefined) and print it.
// result ≤ 0 (inactive)

// query Item O=C(O)CCC/C=C/C[C@@H]1[C@@H](/C=C/[C@@H](O)COc2cccc(C(F)(F)F)c2)[C@H](O)C[C@@H]1O [5-trans Fluprostenol] : provide scaled lipid accumulation score
// result 0.008 (inactive)

// query Report scaled lipid accumulation score for CCCCC[C@H](O)/C=C/[C@H]1[C@H](O)CC(=O)[C@@H]1CCCCCCCO [Prostaglandin E1 Alcohol]
// result 0.129 (inactive)

// query Quickly give me recorded scaled lipid accumulation score for CCC(O)/C=C/C=O (centres undefined) [4-hydroxy Hexenal]
// result ≤ 0 (inactive)

* * *

- Test system: primary human hepatic stellate cells (donor 1)
- Method: scaled lipid accumulation score (0 = DMSO-like, 1 = nortriptyline-like); higher = stronger HSC inactivation (lipid re-accumulation), active = hit call of the paper
- Setup conditions: library stock concentration: 3.33 mM; 48 h
Where a name gives a salt, the structure may show the parent alone. In all, about 5,800 compounds went through this assay and about 620 (11%) showed activity. The sample holds actives, similar compounds and a random draw of the others, so the mix is not that of the screen.
Reported property: scaled lipid accumulation score

// query Note down scaled lipid accumulation score recorded for CC(C)(C)c1cnc(CSc2cnc(NC(=O)C3CCNCC3)s2)o1
// result 0.468 (inactive)

// query Could you please provide reported scaled lipid accumulation score for CNC(=O)c1ccc(C)c(-n2c(C)cc(OCc3ccc(F)cc3F)c(Br)c2=O)c1 ? Thanks!
// result 0.014 (inactive)

// query Report scaled lipid accumulation score for O=C1Cc2c([nH]c3ccc(Br)cc23)-c2ccccc2N1 [Kenpaullone]
// result ≤ 0 (inactive)

// query Name the recorded scaled lipid accumulation score of the compound listed here: COC(=O)N[C@@H](C)CNc1nccc(-c2cn(C(C)C)nc2-c2cc(Cl)cc(NS(C)(=O)=O)c2F)n1
// result ≤ -0.009 (inactive)

// query Given O=c1c(O)c(-c2ccc(O)c(O)c2)oc2cc(O)c(O)c(O)c12 [Quercetagetin] , respond with its scaled lipid accumulation score.
// result ≤ 0 (inactive)

// query Kindly indicate its recorded scaled lipid accumulation score. Item: CC(C)(OCc1nn(Cc2ccccc2)c2ccccc12)C(=O)O [Bindarit]
// result ≤ 0 (inactive)

// query Write down scaled lipid accumulation score measured for item C=CC(=O)Nc1cccc(Nc2nc(Nc3ccc(NC4CN(CCF)C4)cc3OC)ncc2C(F)(F)F)c1
// result ≤ -0.009 (inactive)

// query Report scaled lipid accumulation score, nothing else, for this compound: N#Cc1ccc2[nH]cc(CCCCN3CCN(c4ccc5oc(C(N)=O)cc5c4)CC3)c2c1 [Vilazodone HCl]
// result 0.512 (inactive)

// query Please indicate scaled lipid accumulation score recorded for Cc1ccc(Nc2c(F)cccc2Cl)c(CC(=O)O)c1 [Lumiracoxib]
// result ≤ 0 (inactive)

Recorded values, source the supplement of paper PMC9135407.
